# collection of Ki values tested on Bcl-XL protein (Homo sapiens, UniProt Q07817)
# Sequence (Q07817 with tags, fused parts or gaps DEL45-84): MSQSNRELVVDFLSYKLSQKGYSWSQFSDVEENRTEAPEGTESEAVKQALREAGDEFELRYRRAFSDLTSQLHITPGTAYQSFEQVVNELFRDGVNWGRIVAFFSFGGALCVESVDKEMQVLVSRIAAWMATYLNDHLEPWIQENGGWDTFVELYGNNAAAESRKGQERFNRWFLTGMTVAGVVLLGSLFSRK
quantityMeasured: Ki

molecule	testTarget	result
O=C(NS(=O)(=O)c1ccc(N[C@H](CCN2CC3CC2CO3)CSc2ccccc2)c(S(=O)(=O)C(F)(F)Cl)c1)c1ccc(N2CCN(CC3=C(c4ccc(Cl)cc4)CCCCC3)CC2)cc1 (stereo partly drawn)	Bcl-XL protein (Homo sapiens, UniProt Q07817)	≤ 1 nM
O=C(NS(=O)(=O)c1ccc(N[C@H](CCN2CCOCC2)CSc2ccccc2)c(S(=O)(=O)C(F)(F)Cl)c1)c1ccc(N2CCN(CC3=C(c4ccc(Cl)cc4)CCCC3)CC2)cc1	Bcl-XL protein (Homo sapiens, UniProt Q07817)	≤ 1 nM
CC(C)N(C)CC[C@H](CSc1ccccc1)Nc1ccc(S(=O)(=O)NC(=O)c2ccc(N3CCN(CC4=C(c5ccc(Cl)cc5)CCC(C)(C)C4)CC3)cc2)cc1S(=O)(=O)C(F)(F)F	Bcl-XL protein (Homo sapiens, UniProt Q07817)	≤ 1 nM

---

pKi: −log10 of the molar value.
Below are molecules with their pKi as measured on Bcl-XL protein (Homo sapiens, UniProt Q07817).
quantityMeasured: pKi

molecule	testTarget	quantityMeasured	result
CC1(C)CCC(c2ccc(Cl)cc2)=C(CN2CCN(c3ccc(C(=O)NS(=O)(=O)c4ccc(N[C@H](CCN5CC6CC5CO6)CSc5ccccc5)c(S(=O)(=O)C(F)(F)F)c4)cc3)CC2)C1 (some centres unmarked) [Example 10]	Bcl-XL protein (Homo sapiens, UniProt Q07817)	pKi	≥ 9.00
CC(C)N(C)CC[C@H](CSc1ccccc1)Nc1ccc(S(=O)(=O)NC(=O)c2ccc(N3CCN(CC4=C(c5ccc(Cl)cc5)CC(C)(C)CC4)CC3)cc2)cc1S(=O)(=O)C(F)(F)F [Example 14]	Bcl-XL protein (Homo sapiens, UniProt Q07817)	pKi	≥ 9.00
CN(C)CC[C@H](CSc1ccccc1)Nc1ccc(S(=O)(=O)NC(=O)c2ccc(N3CCN(CC4=C(c5ccc(Cl)cc5)CC(C)(C)CC4)CC3)cc2)cc1S(=O)(=O)C(F)(F)F [Example 37]	Bcl-XL protein (Homo sapiens, UniProt Q07817)	pKi	≥ 9.00
O=C(NS(=O)(=O)c1ccc(N[C@H](CCN2CCCCCC2)CSc2ccccc2)c(S(=O)(=O)C(F)(F)F)c1)c1ccc(N2CCN(CC3=C(c4ccc(Cl)cc4)CCCC3)CC2)cc1 [Example 16]	Bcl-XL protein (Homo sapiens, UniProt Q07817)	pKi	≥ 8.70
O=C(NS(=O)(=O)c1ccc(N[C@H](CCN2CCOCC2)CSc2ccccc2)c(S(=O)(=O)C(F)(F)F)c1)c1ccc(N2CCN(Cc3ccccc3-c3ccc(Cl)cc3)CC2)cc1 [Example 39]	Bcl-XL protein (Homo sapiens, UniProt Q07817)	pKi	≥ 9.00

---

protocolDescription: Pharmacokinetic evaluation in rat
Assay type: in vivo
settings: male, Sprague-Dawley, plasma, single 5 mg/kg oral dose, Table 1, read-out: Pharmacokinetic area under the plasma concentration Curve (rat) AUC0-∞
# maps each entry to its AUC(0-inf)
quantityMeasured: AUC(0-inf) (µM·h)

compound	quantityMeasured	result
CC1(C)CCC(CN2CCN(c3ccc(C(=O)NS(=O)(=O)c4ccc(N[C@H](CCN5CCCC5)CSc5ccccc5)c(S(=O)(=O)C(F)(F)F)c4)cc3)CC2)=C(c2ccc(Cl)cc2)C1 [Example 34]	AUC(0-inf)	11.1
CC1(C)CCC(CN2CCN(c3ccc(C(=O)NS(=O)(=O)c4ccc(N[C@H](CCN5C[C@@H]6C[C@H]5CO6)CSc5ccccc5)c(S(=O)(=O)C(F)(F)F)c4)cc3)CC2)=C(c2ccc(Cl)cc2)C1 [Example 36]	AUC(0-inf)	4.22
CN(C)CC[C@H](CSc1ccccc1)Nc1ccc(S(=O)(=O)NC(=O)c2ccc(N3CCN(CC4=C(c5ccc(Cl)cc5)CCCC4)CC3)cc2)cc1S(=O)(=O)C(F)(F)F [Example 26]	AUC(0-inf)	0.8
O=C(NS(=O)(=O)c1ccc(N[C@H](CCN2CCOCC2)CSc2ccccc2)c(S(=O)(=O)C(F)(F)Cl)c1)c1ccc(N2CCN(CC3=C(c4ccc(Cl)cc4)CCCC3)CC2)cc1 [Example 3]	AUC(0-inf)	4.13
CC1(C)CCC(CN2CCN(c3ccc(C(=O)NS(=O)(=O)c4ccc(N[C@H](CCN5CCCC5)CSc5ccccc5)c(S(=O)(=O)C(F)(F)Cl)c4)cc3)CC2)=C(c2ccc(Cl)cc2)C1 [Example 31]	AUC(0-inf)	5.1
CC1(C)CCC(CN2CCN(c3ccc(C(=O)NS(=O)(=O)c4ccc(N[C@H](CCN5C[C@@H]6C[C@H]5CO6)CSc5ccccc5)c(S(=O)(=O)C(F)(F)Cl)c4)cc3)CC2)=C(c2ccc(Cl)cc2)C1 [Example 25]	AUC(0-inf)	1.67
CN(C)CC[C@H](CSc1ccccc1)Nc1ccc(S(=O)(=O)NC(=O)c2ccc(N3CCN(CC4=C(c5ccc(Cl)cc5)CCC(C)(C)C4)CC3)cc2)cc1S(=O)(=O)C(F)(F)F [Example 20]	AUC(0-inf)	3.11
O=C(NS(=O)(=O)c1ccc(N[C@H](CCN2CCCC2)CSc2ccccc2)c(S(=O)(=O)C(F)(F)Cl)c1)c1ccc(N2CCN(CC3=C(c4ccc(Cl)cc4)CCCCC3)CC2)cc1 [Example 32]	AUC(0-inf)	1.38
CN(C)CC[C@H](CSc1ccccc1)Nc1ccc(S(=O)(=O)NC(=O)c2ccc(N3CCN(Cc4ccccc4-c4ccc(Cl)cc4)CC3)cc2)cc1S(=O)(=O)C(F)(F)F [Example 38]	AUC(0-inf)	0.67
O=C(NS(=O)(=O)c1ccc(N[C@H](CCN2CCOCC2)CSc2ccccc2)c(S(=O)(=O)C(F)(F)F)c1)c1ccc(N2CCN(CC3=C(c4ccc(Cl)cc4)CCOC3)CC2)cc1 [Example 21]	AUC(0-inf)	1.81
CC1(C)CCC(c2ccc(Cl)cc2)=C(CN2CCN(c3ccc(C(=O)NS(=O)(=O)c4ccc(N[C@H](CCN5CCOCC5)CSc5ccccc5)c(S(=O)(=O)C(F)(F)F)c4)cc3)CC2)C1 [Example 1]	AUC(0-inf)	5.01
CC(C)N(C)CC[C@H](CSc1ccccc1)Nc1ccc(S(=O)(=O)NC(=O)c2ccc(N3CCN(CC4=C(c5ccc(Cl)cc5)CC(C)(C)CC4)CC3)cc2)cc1S(=O)(=O)C(F)(F)Cl [Example 22]	AUC(0-inf)	4.08
CC(C)N(C)CC[C@H](CSc1ccccc1)Nc1ccc(S(=O)(=O)NC(=O)c2ccc(N3CCN(CC4=C(c5ccc(Cl)cc5)CCC(C)(C)C4)CC3)cc2)cc1S(=O)(=O)C(F)(F)Cl [Example 23]	AUC(0-inf)	3.54
O=C(NS(=O)(=O)c1ccc(N[C@H](CCN2CCOCC2)CSc2ccccc2)c(S(=O)(=O)C(F)(F)F)c1)c1ccc(N2CCN(Cc3ccccc3-c3ccc(Cl)cc3)CC2)cc1 [Example 39]	AUC(0-inf)	1.66
CC(C)N(C)CC[C@H](CSc1ccccc1)Nc1ccc(S(=O)(=O)NC(=O)c2ccc(N3CCN(CC4=C(c5ccc(Cl)cc5)CCC(C)(C)C4)CC3)cc2)cc1S(=O)(=O)C(F)(F)F [Example 4]	AUC(0-inf)	6.34
CC1(C)CCC(c2ccc(Cl)cc2)=C(CN2CCN(c3ccc(C(=O)NS(=O)(=O)c4ccc(N[C@H](CCN5CC6CC5CO6)CSc5ccccc5)c(S(=O)(=O)C(F)(F)F)c4)cc3)CC2)C1 (some centres unmarked) [Example 10]	AUC(0-inf)	2.48
O=C(NS(=O)(=O)c1ccc(N[C@H](CCN2C3CCC2CC3)CSc2ccccc2)c(S(=O)(=O)C(F)(F)F)c1)c1ccc(N2CCN(CC3=C(c4ccc(Cl)cc4)CCCC3)CC2)cc1 [Example 8]	AUC(0-inf)	1.1
